# Experiment: Permeability across apical to basolateral side in human Caco2 cells
# Assay type: ADME, cell-based
# Measurement context: Caco-2, read-out: permeability
Readout kind: Papp A→B (×10⁻⁶ cm/s)

[[record]]
compound = "Cc1nc(NC(=O)C(C)(C)CC(F)(F)F)sc1-c1ccc(N)nc1"
readout_kind = "Papp A→B"
measured_value = 41

[[record]]
compound = "Nc1ccc(-c2cnc(NC(=O)CN(Cc3ccccc3)C(=O)c3ccncc3)s2)cn1"
readout_kind = "Papp A→B"
measured_value = 2.3

[[record]]
compound = "Cc1ccc(C(=O)N(CC(=O)Nc2ncc(-c3ccc(N)cc3)s2)Cc2ccccc2)cn1"
readout_kind = "Papp A→B"
measured_value = 17

[[record]]
compound = "Cc1nc(NC(=O)CN2C(=O)OC[C@H]2C(C)C)sc1-c1ccc(N)cc1"
readout_kind = "Papp A→B"
measured_value = 19

[[record]]
compound = "Cc1nc(NC(=O)C2(C)CCCCC2)sc1-c1ccc(N)nc1"
readout_kind = "Papp A→B"
measured_value = 20


[P] Cc1nc(NC(=O)CN(Cc2ccccc2)C(=O)c2ccncc2)sc1-c1ccc(N)nc1
[Q] COc1ccc(-c2c(C)nn3c(NCCN4CCOCC4)cc(C)nc23)cc1OC
[R] Cc1nc(NC(=O)C(C)CC(F)(F)F)sc1-c1ccc(N)nc1 (stereo not given)
Arrange items by their Papp A→B values in increasing order. Please list the labels according to the requested order.
P, Q, R
(P: 2.1 ×10⁻⁶ cm/s, Q: 11 ×10⁻⁶ cm/s, R: 20 ×10⁻⁶ cm/s)

[1] Nc1ccc(-c2cnc(NC(=O)CN(Cc3ccccc3)C(=O)c3ccncc3)s2)cc1
[2] CO[C@H]1CC[C@@H](C(=O)Nc2nc(C)c(-c3ccc(N)nc3)s2)CC1
Returns: the label, 1 or 2 , whose recorded Papp A→B is the lower number. Output the label that corresponds to your choice.
1
